molecular target: human CB1 receptor (Homo sapiens); construct: expressed in transfected cells; host or cells: HEK293; experiment: bioSensAll β-arrestin2 plasma membrane translocation (+GRK2) BRET biosensor assay in HEK293 cells transfected with hCB1; test compound added before EC75-80 of agonist CP55,940 (100 nM); type: cell-based; conditions: βArrestin2 (+GRK2) BRET biosensor, vs CP55,940 100 nM (EC75-80), read-out: CB1 wt βarr2 IC50
Sequence (P21554 whole entry): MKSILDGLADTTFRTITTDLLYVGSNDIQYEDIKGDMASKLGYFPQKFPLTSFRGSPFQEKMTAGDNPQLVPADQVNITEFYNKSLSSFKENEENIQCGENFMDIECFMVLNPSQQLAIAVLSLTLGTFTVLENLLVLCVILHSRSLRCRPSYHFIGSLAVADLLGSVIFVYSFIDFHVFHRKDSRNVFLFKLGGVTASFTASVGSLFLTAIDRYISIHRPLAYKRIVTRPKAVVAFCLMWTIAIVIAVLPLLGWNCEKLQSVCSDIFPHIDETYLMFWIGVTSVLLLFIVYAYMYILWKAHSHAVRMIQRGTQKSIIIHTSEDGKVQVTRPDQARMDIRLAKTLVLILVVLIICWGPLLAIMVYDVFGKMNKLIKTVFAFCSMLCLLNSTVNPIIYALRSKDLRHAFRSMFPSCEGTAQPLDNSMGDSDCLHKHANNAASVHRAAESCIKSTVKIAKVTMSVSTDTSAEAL
So basically, if IC50 comes in under 20 nM it's yes (1), and if it's 20 nM or more it's no (0).

{"COMPOUND": "C[C@H]1COCCN1c1nc(OCC(C)(C)O)nc2c1nc(-c1ccccc1Cl)n2-c1ccc(Cl)cc1 [Compound 211]", "TEST SYSTEM": "human CB1 receptor (Homo sapiens)", "CATEGORY": "yes (1)"}
{"COMPOUND": "CCNC1(C(N)=O)CCN(c2nc(OCCO)nc3c2nc(-c2ccccc2Cl)n3-c2ccc(Cl)cc2)CC1 [Compound 142]", "TEST SYSTEM": "human CB1 receptor (Homo sapiens)", "CATEGORY": "yes (1)"}
{"COMPOUND": "Cc1cc(C#N)ncc1-c1nc2c(N3CCC(C)(C(N)=O)CC3)nc(OCC(C)(C)O)nc2n1-c1ccc(Cl)cc1 [Compound 108]", "TEST SYSTEM": "human CB1 receptor (Homo sapiens)", "CATEGORY": "no (0)"}
{"COMPOUND": "Cc1ncccc1-c1nc2c(N3CCC(C)(C(N)=O)CC3)nc(OCC(C)(C)O)nc2n1-c1ccc(Cl)cc1 [Compound 104]", "TEST SYSTEM": "human CB1 receptor (Homo sapiens)", "CATEGORY": "no (0)"}
{"COMPOUND": "CC1(C(N)=O)CCN(c2nc(OC[C@@H]3CCCN3)nc3c2nc(-c2ccccc2Cl)n3-c2ccc(Cl)cc2)CC1 [Compound 160]", "TEST SYSTEM": "human CB1 receptor (Homo sapiens)", "CATEGORY": "no (0)"}
{"COMPOUND": "CC(C)(C)OC(=O)NCCOc1nc(N2CCC(C)(C(N)=O)CC2)c2nc(-c3ccccc3Cl)n(-c3ccc(Cl)cc3)c2n1 [Compound 60]", "TEST SYSTEM": "human CB1 receptor (Homo sapiens)", "CATEGORY": "yes (1)"}
{"COMPOUND": "CN(CCO)c1nc(N2CCC(C)(C(N)=O)CC2)c2nc(-c3ncccc3F)n(-c3ccc(Cl)cc3)c2n1 [Compound 50]", "TEST SYSTEM": "human CB1 receptor (Homo sapiens)", "CATEGORY": "no (0)"}
{"COMPOUND": "CCNC1(C(N)=O)CCN(c2nc(NCc3ccccc3)nc3c2nc(-c2ccccc2Cl)n3-c2ccc(Cl)cc2)CC1 [Compound 151]", "TEST SYSTEM": "human CB1 receptor (Homo sapiens)", "CATEGORY": "yes (1)"}
{"COMPOUND": "CN(CC1COC1)c1nc(-c2ccc(C(F)(F)F)nc2)c2nc(-c3ccccc3Cl)n(-c3ccc(Cl)cc3)c2n1 [Compound 125]", "TEST SYSTEM": "human CB1 receptor (Homo sapiens)", "CATEGORY": "yes (1)"}
{"COMPOUND": "CC(C)(O)COc1nc(N2CCC(C(N)=O)CC2)c2nc(-c3ccccc3Cl)n(-c3ccc(Cl)cc3)c2n1 [Compound 198]", "TEST SYSTEM": "human CB1 receptor (Homo sapiens)", "CATEGORY": "no (0)"}
{"COMPOUND": "CN(CCO)c1nc(-c2ccc(C(F)(F)F)nc2)c2nc(-c3ccccc3Cl)n(-c3ccc(Cl)cc3)c2n1 [Compound 165]", "TEST SYSTEM": "human CB1 receptor (Homo sapiens)", "CATEGORY": "yes (1)"}
{"COMPOUND": "CN(CC(C)(C)O)c1nc(N2CCC(C(F)(F)F)CC2)c2nc(-c3ccccc3Cl)n(-c3ccc(Cl)cc3)c2n1 [Compound 38]", "TEST SYSTEM": "human CB1 receptor (Homo sapiens)", "CATEGORY": "yes (1)"}
{"COMPOUND": "CC(C)(O)COc1nc(N2CCC(C)(C(N)=O)CC2)c2nc(-c3ccc(C#N)cc3)n(-c3ccc(Cl)cc3)c2n1 [Compound 106]", "TEST SYSTEM": "human CB1 receptor (Homo sapiens)", "CATEGORY": "no (0)"}
{"COMPOUND": "CC1(C(N)=O)CCN(c2nc(NCCO)nc3c2nc(-c2ccccc2Cl)n3-c2ccc(Cl)cc2)CC1 [Compound 56]", "TEST SYSTEM": "human CB1 receptor (Homo sapiens)", "CATEGORY": "yes (1)"}
